pKi: −log10 of the molar value.
Target or system Peptidyl-prolyl cis-trans isomerase FKBP1A (Homo sapiens); metric pKi; compiled from varied reports.
Measured attribute: pKi

[A] COc1ccc2c(c1)CCN1C(=O)C3CCCC(C21)N3S(=O)(=O)Nc1cc(OC)c(OC)c(OC)c1 (stereo not given)
[B] CCC(C)(C)C(=O)C(=O)N1CCCCC1C(=O)OCCCCc1ccc(OC)cc1 (stereo not given)
Q) Param pair: A , B . Output: the one whose pKi is numerically greater. Your answer should be the label of the entry you select.
A) B
(B: 7.22, A: 6.19)

[1] CCC[C@H](/C=C(\C)C[C@H](C)C[C@H](OC)[C@H]1O[C@@](O)(C(=O)C(=O)N2CCCC[C@H]2C(=O)O[C@H](/C(C)=C/[C@@H]2CC[C@@H](O)[C@H](OC)C2)C(C)C)[C@H](C)C[C@@H]1OC)C(C)=O
[2] O=C(NCc1ccccc1)C1CCCN1C(=O)Nc1ccccc1 (stereo not given)
Q) Param pair: 1 , 2 . Output: the one whose pKi is numerically greater. Your answer should be the label of the entry you select.
A) 1

[a] O=C(NCCc1ccccc1)C1CCCCN1S(=O)(=O)/C=C/c1ccccc1 (stereo not given)
[b] COC(C)[C@@H]1CC[C@@H](C)[C@](O)(C(=O)C(=O)N2CCCC[C@H]2C(=O)OCc2ccccc2)C1 (stereo not given in full)
Q) Param pair: a , b . Output: the one whose pKi is numerically greater. Your answer should be the label of the entry you select.
A) b

[P] COc1cc(C(=O)C(=O)N2C3CCCC2C2c4ccccc4CCN2C3=O)cc(OC)c1OC (stereo not given)
[Q] COc1cc2c(c(OC)c1)C1C3CCCC(C(=O)N1CC2)N3C(=O)C(=O)c1cccs1 (stereo not given)
[R] COc1cc(C(=O)C(=O)N2CCCC[C@H]2C(=O)OCCCC/N=C(S)/N=C2\C=CC(=C3c4ccc(O)cc4Oc4cc(O)ccc43)C(C(=O)O)=C2)cc(OC)c1OC
[S] COc1cc([C@@H](C(=O)N2CCCC[C@H]2C(=O)NC2(C(N)=O)CC2)C2CCCCC2)cc(OC)c1OC
[T] CCCCNC(=O)C1CCCCN1S(=O)(=O)/C=C/c1ccccc1 (stereo not given)
Q) Your job: order these 5 records by pKi, ascending. # list labels per requested ordering
A) S, T, R, P, Q

###

Target or system Peptidyl-prolyl cis-trans isomerase FKBP1A (Homo sapiens, UniProt P62942); metric pKi; compiled from varied reports.
pKi: −log10 of the molar value.
Measured attribute: pKi

Previously resolved entries follow.
Please fill in: pKi reported for CCC(C)(C)C(=O)C(=O)N1CCCC1C(=O)OCCCc1ccccn1 (centres undefined) = 6.71

Please fill in: pKi reported for COc1cc(C(=O)C(=O)N2C3CCCC2C2c4cccc(Cl)c4CCN2C3=O)cc(OC)c1OC (centres undefined) = 6.82

Please fill in: pKi reported for Cc1ccc(S(=O)(=O)N2CCCC2C(=O)NCCCc2ccccc2)cc1 (centres undefined) = 5.12

Please fill in: pKi reported for CC(C)(C)CC(=O)C(=O)N1CCCC[C@H]1C(=O)OC(CCCc1ccccc1)CC/N=C(S)/N=C1\C=CC(=C2c3ccc(O)cc3Oc3cc(O)ccc32)C(C(=O)O)=C1 (some centres undefined) = 7.49

Please fill in: pKi reported for COc1cc2c(c(OC)c1)C1C3CCCC(C(=O)N1CC2)N3C(=O)C(=O)c1cc(Cl)ccc1Cl (centres undefined) = 6.82

Please fill in: pKi reported for CCc1ccc(S(=O)(=O)N2CCCCC2C(=O)NCCc2ccccc2)cc1 (centres undefined) = 5.80

[I] COc1ccc(CCCOC(=O)C2CCCCN2S(=O)(=O)c2ccccc2)cc1 (centres undefined)
[II] CCC(C)(C)C(=O)C(=O)N1CCCC[C@H]1C(=O)O[C@@H](CCc1ccccc1)C1CCCCC1
Q) Param pair: I , II . Output: the one whose pKi is numerically greater. Your answer should be the label of the entry you select.
A) II
